src = patent US12194050B2

# EC50 values compiled below
target: human α7 nAchR (Homo sapiens (Human), UniProt P36544); assay: Human α7 nicotinic acetylcholine receptor [Ca2+]i assay (PAM, Ca2+ fluorometry); settings: Flp-In 293 cells expressing human α7 nAchR and human RIC-3; in presence of saturating agonist (mostly PNU-282987, 1 μM)
Sequence (P36544 23-502): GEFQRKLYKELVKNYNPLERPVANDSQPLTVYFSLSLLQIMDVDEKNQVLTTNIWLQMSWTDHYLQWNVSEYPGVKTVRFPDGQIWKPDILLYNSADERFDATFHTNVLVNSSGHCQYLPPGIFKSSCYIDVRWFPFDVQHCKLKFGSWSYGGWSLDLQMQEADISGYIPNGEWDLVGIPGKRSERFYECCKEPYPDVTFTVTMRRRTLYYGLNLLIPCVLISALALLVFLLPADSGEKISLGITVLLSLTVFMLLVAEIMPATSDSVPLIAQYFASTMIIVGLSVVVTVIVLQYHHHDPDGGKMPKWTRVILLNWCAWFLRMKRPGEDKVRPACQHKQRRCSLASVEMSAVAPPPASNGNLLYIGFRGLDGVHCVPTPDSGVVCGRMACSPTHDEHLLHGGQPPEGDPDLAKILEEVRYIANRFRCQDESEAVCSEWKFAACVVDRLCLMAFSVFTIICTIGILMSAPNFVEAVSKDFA
observed_property: EC50 (nM)

compound	unit_name	readout_value
COc1ccc(C2=NS(=O)(=O)N(C)C(C(=O)Nc3ccc4c(c3)OCO4)=C2)cc1OC [Example 9]	nM	1600
COc1ccc(C2=NS(=O)(=O)N(C(C)C)C(C(=O)Nc3cccc(F)n3)=C2)cc1OC [Example 123]	nM	55
CCN1C(C(=O)Nc2cccc(C(F)(F)F)c2)=CC([C@H]2CC3C[C@@H]3C2)=NS1(=O)=O (stereo partly shown) [Example 52]	nM	1600
COc1ccc(C2=NS(=O)(=O)N(C)C(C(=O)Nc3cccc(C(F)(F)F)c3)=C2)cc1C [Example 23]	nM	400

* * *

target: human α7 nAchR (Homo sapiens (Human), UniProt P36544); assay: Human α7 nicotinic acetylcholine receptor [Ca2+]i assay (PAM, Ca2+ fluorometry); conditions: Flp-In 293 cells expressing human α7 nAchR and human RIC-3; in presence of saturating agonist (mostly PNU-282987, 1 μM)
pEC50: −log10 of the molar value.
Please use fulfilled whenever pEC50 is not below 6, and not fulfilled whenever it is.

compound	label
CCN1C(C(=O)Nc2ccc(C)c(Cl)c2)=CC(c2ccc(OC)c(OC)c2)=NS1(=O)=O [Example 30]	fulfilled
COc1ccc(C2=NS(=O)(=O)N(C(C)C)C(C(=O)Nc3cccc(C(F)(F)F)n3)=C2)cc1OC [Example 91]	fulfilled
CCN1C(C(=O)Nc2cccc(C(F)(F)F)c2)=CC(c2ccc(OC)c(C)c2)=NS1(=O)=O [Example 44]	fulfilled
CCc1cccc(NC(=O)C2=CC(c3ccc(OC)c(OC)c3)=NS(=O)(=O)N2C)c1 [Example 5]	fulfilled
CN1C(C(=O)Nc2cccc(F)n2)=CC(C2CCC(F)(F)CC2)=NS1(=O)=O [Example 56]	not fulfilled
O=C(Nc1cccc(F)n1)C1=CC(C2CCC(F)(F)CC2)=NS(=O)(=O)N1CC1CC1 [Example 135]	fulfilled

* * *

molecules and their reported EC50
target: human α7 nAchR (Homo sapiens (Human), UniProt P36544); test: Human α7 nicotinic acetylcholine receptor [Ca2+]i assay (PAM, Ca2+ fluorometry); conditions: Flp-In 293 cells expressing human α7 nAchR and human RIC-3; in presence of saturating agonist (mostly PNU-282987, 1 μM)

entry_smiles	EC50 (nM)
COc1ccc(C2=NS(=O)(=O)N(CC3CC3)C(C(=O)Nc3cccc(C(F)(F)F)n3)=C2)cc1OC	110
CC(C)N1C(C(=O)Nc2cncc(F)n2)=CC([C@H]2CC[C@H](C(F)(F)F)CC2)=NS1(=O)=O	140
COCCN1C(C(=O)Nc2cccc(C(F)(F)F)n2)=CC([C@H]2CC[C@H](C(F)(F)F)CC2)=NS1(=O)=O	310
CCN1C(C(=O)Nc2cccc(F)n2)=CC(C2CCC(F)(F)CC2)=NS1(=O)=O	620
CCN1C(C(=O)Nc2ccc(OC)cc2)=CC(c2ccc(OC)c(C(F)(F)F)c2)=NS1(=O)=O	45
CCN1C(C(=O)Nc2cccc(C)c2)=CC(c2ccc(OC)c(OC)c2)=NS1(=O)=O	340
COc1ccc(C2=NS(=O)(=O)N(C)C(C(=O)Nc3ccc4c(c3)CCN(C)C4=O)=C2)cc1OC	1400

* * *

biological target: UniProtKB P36544; experiment: Human α7 nicotinic acetylcholine receptor [Ca2+]i assay (PAM, Ca2+ fluorometry); conditions: Flp-In 293 cells expressing human α7 nAchR and human RIC-3; in presence of saturating agonist (mostly PNU-282987, 1 μM)
observed_property: EC50 (nM)

compound	readout_value
CCN1C(C(=O)Nc2cncc(C(F)(F)F)c2)=CC([C@H]2CC[C@H](C(F)(F)F)CC2)=NS1(=O)=O [Example 58]	1200
O=C(Nc1ccc(F)cn1)C1=CC([C@H]2CC[C@H](C(F)(F)F)CC2)=NS(=O)(=O)N1CC1CC1 [Example 133]	230
COc1ccc(NC(=O)C2=CC(c3ccc(OC)c(OC)c3)=NS(=O)(=O)N2CC2CC2)cc1 [Example 116]	100
COc1ccc(C2=NS(=O)(=O)N(C)C(C(=O)Nc3ccc(C)cn3)=C2)cc1OC [Example 17]	2800
